# target-desc: T1, MSUT2 ZF (zinc finger domain) (UniProt Q6PJT7 595-719)
# T1 sequence: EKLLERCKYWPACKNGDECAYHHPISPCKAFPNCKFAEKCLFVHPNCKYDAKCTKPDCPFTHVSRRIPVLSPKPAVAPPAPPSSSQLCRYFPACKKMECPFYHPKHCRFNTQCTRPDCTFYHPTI
# experimental-protocol: competition
reported-property: IC50 (nM)

>>> reading("AAAAAAAAAAAAAAA (ssRNA) [unlabeled poly(A) 15-mer]")
198
